assay: qHTS assay to identify small molecule antagonists of the retinoid-related orphan receptor gamma (ROR-gamma) signaling pathway - cell viability counter screen (AID 1159520); settings: Tet-on RORgamma CHO cells viability, ATP luminescence, 16 h; series mostly up to 92.4 µM; further: nearly all actives have a fitted effect of over 50% in size
Inconclusive results are not listed. Active and inactive are the calls of the source. The call rests on the fitted dose curve; in most records, active means well fitted cell-killing curve with a large enough effect in the repeat runs; inconclusive means weak or mixed curves, or effect the other way; inactive means no such curve, though single readings can be large or run the other way.
assay-readout: outcome

• ClCCBr = inactive
• C[C@]12CC[C@H]3[C@@H](CC[C@@]45O[C@@H]4C(O)=C(C#N)C[C@]35C)[C@@H]1CC[C@@H]2O = inactive
• CC(C)(Cl)Cl = inactive
• CCN(CC)c1ccccc1 = inactive
• Cc1cc(Cl)ccc1O = inactive

What does the data say about its outcome? Entry: O=c1[nH]c2ccccc2c(=O)o1
inactive

Now this one: Cc1ccc(N)cc1N
inactive

Next molecule: O=S(=O)(c1ccc(Cl)cc1)c1cc(Cl)c(Cl)cc1Cl
inactive

Request: O=[N+]([O-])c1ccccc1
inactive

Next record, please: C=C(C)CCl
inactive

Continue with CC(C)=C[C@@H]1[C@@H](C(=O)OCc2coc(Cc3ccccc3)c2)C1(C)C
inactive

Proceed to O=C1CCCN1
inactive

Request: CC1C=[C-]C=C1.[C-]#[O+].[C-]#[O+].[C-]#[O+].[Mn]
inactive

----------
assay: qHTS RealTime-Glo MT Cell Viability Assay in HepG2 cells - 32 hour (AID 1224877); details: RealTime-Glo luminescence; series mostly up to 76.8 µM; further: nearly all actives have a fitted effect of over 55% in size
Results filed as inconclusive are left out. The source made the active and inactive calls. Calls follow the shape of the dose curve; as a rule, active = well fitted cell-killing curve with a large enough effect in the repeat runs; inconclusive = weak or mixed curves; inactive = flat fitted curve, though single readings scatter.
assay-readout: outcome

Examples with their reported outcome follow.
• CN(C)[C@@H]1C(=O)C(C(N)=O)=C(O)[C@@]2(O)C(=O)C3=C(O)c4c(O)cccc4[C@@](C)(O)[C@H]3C[C@@H]12 = inactive
• COC(=O)NC(=S)Nc1ccccc1NC(=S)NC(=O)OC = inactive
• c1ccc2c(c1)oc1ccccc12 = inactive
• CCCCCOC(=O)c1ccccc1C(=O)OCCCCC = inactive
• CC(C)(C)C(O)(CCc1ccc(Cl)cc1)Cn1cncn1 (centres undefined) = inactive

Read the next record carefully.
If you can, please state the reported outcome value of CCN(CC)CCO .
inactive

----------
assay: Caspase-3/7 induction in CHO-K1 cells by small molecules, qHTS assay (AID 1346980); conditions: CHO-K1 caspase-3/7 induction, Caspase-Glo luminescence, 17 h; series mostly up to 92.4 µM; further: nearly all actives have a fitted effect of over 15% in size
Active and inactive are the calls of the source. Calls follow the shape of the dose curve; as a rule, active = well fitted activation curve with a large enough effect in the repeat runs; inconclusive = weak or mixed curves; inactive = flat fitted curve, though single readings scatter.
assay-readout: outcome

Example entries and their recorded answers appear below.
* Cc1ccccc1O | inactive
* CON(C)C(=O)Nc1ccc(Cl)c(Cl)c1 | inactive
* C[C@]12CC[C@H]3[C@@H](CC[C@@]45O[C@@H]4C(O)=C(C#N)C[C@]35C)[C@@H]1CC[C@@H]2O | inactive
* CC(C)(C)OOC(=O)c1ccccc1 | inactive
* CCNc1nc(NC(C)(C)C)nc(SC)n1 | inactive
* c1ccc(OP(Oc2ccccc2)Oc2ccccc2)cc1 | inactive
* Cc1cc(Cl)ccc1O | inactive
* CC(C)N1C(=O)c2ccccc2NS1(=O)=O | inactive
* O=NN1CCCC1 | inactive
* O=S(=O)(c1ccc(O)cc1)c1ccc(O)cc1 | inactive

What measured outcome goes with CC(C)C1(C)N=C(c2nc3ccccc3cc2C(=O)O)NC1=O (centres undefined) ?
inactive

Now the molecule O=C1CCCN1
inactive

Queued: c1cc2c3c(cccc3c1)CC2
inactive

Also, Clc1cccc(Cl)c1Cl please.
inactive

----------
target: Acetylcholinesterase (Homo sapiens) (UniProt P22303); test: Acetylcholinesterase (AChE) small molecule antagonists: colormetric cell-based qHTS assay (AID 1347395); conditions: SH-SY5Y cells AChE activity, colorimetric (Ellman); series mostly up to 115 µM; further: nearly all actives have a fitted effect of over 30% in size
Sequence (P22303 whole entry, looked up): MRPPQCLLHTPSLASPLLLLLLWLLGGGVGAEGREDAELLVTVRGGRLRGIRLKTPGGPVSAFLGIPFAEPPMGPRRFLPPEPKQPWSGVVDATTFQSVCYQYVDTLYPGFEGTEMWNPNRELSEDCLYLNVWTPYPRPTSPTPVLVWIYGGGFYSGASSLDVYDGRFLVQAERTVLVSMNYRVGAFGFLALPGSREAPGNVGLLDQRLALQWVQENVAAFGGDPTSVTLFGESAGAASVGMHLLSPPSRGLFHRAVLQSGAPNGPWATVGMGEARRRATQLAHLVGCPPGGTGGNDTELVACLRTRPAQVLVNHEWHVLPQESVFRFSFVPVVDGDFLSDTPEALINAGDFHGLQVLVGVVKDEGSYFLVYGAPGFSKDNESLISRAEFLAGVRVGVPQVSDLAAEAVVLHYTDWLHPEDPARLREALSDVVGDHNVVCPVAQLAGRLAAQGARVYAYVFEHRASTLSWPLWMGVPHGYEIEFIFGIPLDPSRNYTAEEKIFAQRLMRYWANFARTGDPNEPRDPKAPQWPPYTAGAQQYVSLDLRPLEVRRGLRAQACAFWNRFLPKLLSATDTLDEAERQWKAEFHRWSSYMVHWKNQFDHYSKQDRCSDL
Results filed as inconclusive are left out. Calls of active or inactive are those of the source. The call rests on the fitted dose curve.
assay-readout: outcome

* CCCN(CCC)c1c([N+](=O)[O-])cc(C(F)(F)F)cc1[N+](=O)[O-] | inactive
* [N-]=[N+]=[N-] | inactive
* O=[N+]([O-])c1ccccc1 | inactive
* COc1ccc2c3c1O[C@H]1[C@@H](O)C=C[C@H]4[C@@H](C2)N(C)CC[C@@]341 | inactive
* Clc1ccccc1Cl | inactive

Dear colleague, I am looking for the recorded outcome of the following compound: Cc1cc(-c2cc(C)c(N)c(C)c2)cc(C)c1N
inactive

Field entry: CCCCCCCCCCCC#N
inactive

What do we get for CC1OC(C)OC(C)O1 (stereo not given) ?
inactive

Would you mind doing CC(=O)C=C(C)C as well?
inactive

Next record, please: O=c1n(Cl)c(=O)n(Cl)c(=O)n1Cl
inactive

Next: Cc1ccccc1O
inactive

# repeat for CCNc1nc(NC(C)C)nc(SC)n1
inactive

Continue with CCCCN(CC)C(=O)SCCC
inactive

Subsequent entry: CCNc1nc(NC(C)(C)C)nc(SC)n1
inactive

Please do the same for Cc1ccc(N)cc1N as well.
inactive

----------
assay: Caspase-3/7 induction in CHO-K1 cells by small molecules, qHTS cell viability counter screen (AID 1346979); details: CellTiter-Fluor fluorescence, 17 h; series mostly up to 92.4 µM; further: nearly all actives have a fitted effect of over 35% in size
Results filed as inconclusive are left out. Activity calls are given as the source filed them. The call rests on the fitted dose curve; in most records, active means well fitted cell-killing curve with a large enough effect in the repeat runs; inconclusive means weak or mixed curves, or effect the other way; inactive means no such curve, though single readings can be large or run the other way.
Reply using exactly one outcome from active, inactive

For this compound, state the assay outcome: Cc1cc(-c2cc(C)c(N)c(C)c2)cc(C)c1N
inactive

Next compound: Nc1ccc(Br)cc1
inactive

Then this compound: CC(C)=C[C@@H]1[C@@H](C(=O)OCc2coc(Cc3ccccc3)c2)C1(C)C
inactive

Consider next the compound Cc1ccc([N+](=O)[O-])cc1C in the same way.
inactive

Would you mind doing C[C@]12CC[C@H]3[C@@H](CC[C@@]45O[C@@H]4C(O)=C(C#N)C[C@]35C)[C@@H]1CC[C@@H]2O as well?
inactive

----------
molecular target: Voltage-gated inwardly rectifying potassium channel KCNH2 (Homo sapiens); assay: Human Ether-a-go-go-Related Gene (hERG) channel small molecule antagonists: fluorescence cell-based qHTS assay (AID 1671200); conditions: hERG-U2OS cells, FluxOR thallium flux fluorescence; series mostly up to 76.8 µM; further: nearly all actives have a fitted effect of over 50% in size
Results filed as inconclusive are left out. The source made the active and inactive calls. Calls come from the whole dose curve; as a rule, active = well fitted inhibition curve with a large enough effect in the repeat runs; inconclusive = weak or mixed curves; inactive = flat fitted curve, though single readings scatter.
The categories you may choose from are active, inactive

Look over these answered cases.
* OCCN(CCO)CCO | inactive
* CCC(C)(CC)c1cc(NC(=O)c2c(OC)cccc2OC)on1 | inactive
* Cc1[nH]c(=O)n(C(C)(C)C)c(=O)c1Cl | inactive

Each molecule tested received a call. Report the one for Cn1cc(-c2ccccc2)c(=O)c(-c2cccc(C(F)(F)F)c2)c1 .
inactive

Another molecule: Nc1ccc(Cc2ccc(N)cc2)cc1
inactive

Another: O=[N+]([O-])c1ccc(Oc2ccc(Cl)cc2Cl)cc1
active

Next: COC(=O)NS(=O)(=O)c1ccc(N)cc1
inactive

Now give it for Cc1cc(-c2cc(C)c(N)c(C)c2)cc(C)c1N too.
inactive

----------
target: Nuclear receptor ROR-gamma (Homo sapiens) (UniProt P51449); assay: qHTS assay to identify small molecule antagonists of the retinoid-related orphan receptor gamma (ROR-gamma) signaling pathway (AID 1159521;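 further: CHO cells with doxycycline inducible ROR-gamma driving an RORE luciferase reporter; top concentration of the series differs between compounds; nearly all actives have a fitted effect of over 50% in size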); conditions: Tet-on RORgamma CHO cells, RORE-luciferase, 16 h; series mostly up to 92.4 µM
Results filed as inconclusive are left out. Calls of active or inactive are those of the source. Calls follow the shape of the dose curve; as a rule, active = well fitted inhibition curve with a large enough effect in the repeat runs; inconclusive = weak or mixed curves, or effect the other way; inactive = no such curve, though single readings can be large or run the other way.
# output must be one of YES for active, NO for inactive

• CN(C)CCO = NO

GET /call?item= Nc1ccc(Br)cc1 returns the recorded outcome of this test.
NO

Thanks! And CC(C)OC(=O)Nc1cccc(Cl)c1 ?
NO

Moving on to Cc1ccccc1O
NO

Similarly, Nc1ccc(Oc2ccc(N)cc2)cc1 ?
NO

Another compound: CC(C)N1C(=O)c2ccccc2NS1(=O)=O
NO

Please do the same for O=c1ccc(=O)[nH][nH]1 as well.
NO

Another compound to check: CCOP(OCC)OCC
NO

Repeat for the following compound: C#CC(C)(C)NC(=O)c1cc(Cl)cc(Cl)c1
NO

And for CCN(CC)c1ccccc1 ?
NO

Next compound up: CC(C)C1(C)N=C(c2nc3ccccc3cc2C(=O)O)NC1=O (stereo not given)
NO

Again, but for c1ccc(-c2ccccc2)cc1
NO

Try the compound CCCN(CCC)c1c([N+](=O)[O-])cc(C(F)(F)F)cc1[N+](=O)[O-]
NO

And what about the compound Cc1cc(-c2cc(C)c(N)c(C)c2)cc(C)c1N ?
NO

Please give the result for CC(Br)C(=O)O (stereo not given) too.
NO

----------
molecular target: Vitamin D3 receptor (Homo sapiens); assay: qHTS assay to identify small molecule agonists of the vitamin D receptor (VDR) signaling pathway (AID 743222); settings: HEK293T VDR-UAS-bla, beta-lactamase FRET ratio, 16 h; series mostly up to 63.5 µM
Records with an inconclusive call do not appear. Activity calls are given as the source filed them. Calls follow the shape of the full dose curve.
assay-readout: outcome

Some solved cases for reference:
* C#CCN(C)[C@H](C)Cc1ccccc1 | inactive
* C#CC(C)(C)NC(=O)c1cc(Cl)cc(Cl)c1 | inactive
* CC(C)=C[C@@H]1[C@@H](C(=O)OCc2coc(Cc3ccccc3)c2)C1(C)C | inactive
* O=c1[nH]c2ccccc2c(=O)o1 | inactive
* CCCN(CCC)N=O | inactive

// lookup outcome for COC(=O)NS(=O)(=O)c1ccc(N)cc1
inactive

Now try c1ccc2c(c1)Oc1ccccc1O2 .
inactive

Next compound up: Cc1ccc(N)cc1N
inactive

What do you have for Cc1cc(Cl)ccc1O ?
inactive

Now this one: CCCCN(CC)C(=O)SCCC
inactive

How about CN1C(=O)CN=C(c2ccccc2)c2cc(Cl)ccc21 ?
inactive

Note, next up: O=S(=O)(c1ccc(O)cc1)c1ccc(O)cc1
inactive

Again, but for c1ccc(OP(Oc2ccccc2)Oc2ccccc2)cc1
inactive

Next entry: COC(=O)c1ccccc1C(=O)OC
inactive

Origin of measurements: PubChem BioAssay (Tox21)
